Can you tell me HR repair efficiency (log10) for the items I'm about to list?
System: CLZ3 (HCA2 human fibroblast dual HR-NHEJ reporter);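 note: compound given one day before doxycycline, which switches on I-SceI endonuclease expression to create double-strand breaks within the integrated reporter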
Assay: HR repair efficiency (tdTomato+ cells) relative to control (log10 fold); higher = more homologous recombination
Settings: 5 µM; doxycycline 0.5 ug/mL
Just the number, please, no unit attached.

May I ask what HR repair efficiency (log10) has been recorded for O=c1cc(-c2ccc(O[C@@H]3O[C@H](CO)[C@@H](O)[C@H](O)[C@H]3O)cc2)oc2cc(O)c([C@@H]3O[C@H](CO)[C@@H](O)[C@H](O)[C@H]3O[C@@H]3OC[C@H](O)[C@H](O)[C@H]3O)c(O)c12 [Vaccarin] ?
-0.086

May I ask what HR repair efficiency (log10) has been recorded for O=C1/C(=C2\Nc3ccccc3C2=O)Nc2ccccc21 [Indigo] ?
-0.0903

May I ask what HR repair efficiency (log10) has been recorded for CCCCCCCCCC(=O)CC(O)S(=O)(=O)O (centres undefined) [Sodium Houttuyfonate] ?
0.102

May I ask what HR repair efficiency (log10) has been recorded for CC(C)=CCC[C@](C)(O[C@@H]1O[C@H](CO)[C@@H](O)[C@H](O)[C@H]1O)[C@H]1CC[C@]2(C)[C@@H]1[C@H](O)C[C@@H]1[C@@]3(C)CC[C@H](O)C(C)(C)[C@@H]3[C@@H](O[C@@H]3O[C@H](CO)[C@@H](O)[C@H](O)[C@H]3O[C@@H]3OC[C@@H](O)[C@H](O)[C@H]3O)C[C@]12C [Notoginsenoside R1] ?
0.0156
